From: PubChem BioAssay AID651739

Consider the following compounds and their measured inhibition readings.
Assay: blockers of Trypanosoma cruzi growth in host cells – cell-based, NIH3T3 host, beta-gal parasite, luminescence, cherry-pick, confirmation (AID 651739)
Settings: T. cruzi beta-gal in NIH3T3, GalScreen luminescence, 90 h; at 8.35 µM; hits give high values
Hit rate of the full screen: of about 5,600 compounds, about 4,100 (73%) were called active. Inconclusive results (about 4%) are left out. So high a share suggests a set chosen from earlier hits. A selection follows.

// worked examples, inhibition included
The recorded inhibition for COc1ccc(CN(C)C[C@H]2Oc3ccc(NS(=O)(=O)c4ccc(Cl)cc4)cc3CC(=O)N([C@@H](C)CO)C[C@H]2C)cc1 is 100% (active)

The recorded inhibition for C[C@@H]1CCCCO[C@H](CN(C)S(=O)(=O)c2ccc(Cl)cc2)[C@H](C)CN([C@@H](C)CO)C(=O)c2cc(NS(=O)(=O)c3cccs3)ccc2O1 is 105% (active)

The recorded inhibition for Cc1noc(C)c1S(=O)(=O)Nc1ccc2c(c1)C(=O)N([C@@H](C)CO)C[C@@H](C)[C@H](CN(C)S(=O)(=O)c1ccc(Cl)cc1)OCCCC[C@H](C)O2 is 99.1% (active)

The recorded inhibition for O=S(=O)(c1ccccc1)N1CC[C@@H]2[C@@H](CO)Nc3ccc(C#Cc4cccc(F)c4)cc3[C@@H]21 is 100% (active)

The recorded inhibition for C[C@@H]1CCCCO[C@H](CN(C)Cc2ccccc2)[C@H](C)CN([C@H](C)CO)C(=O)c2cc(NS(=O)(=O)c3ccc(Cl)cc3)ccc2O1 is 99.5% (active)

The recorded inhibition for CC(=O)N1CC[C@@H]2[C@H](CO)Nc3ccc(C#Cc4ccccc4F)cc3[C@@H]21 is 70.2% (inactive)

The recorded inhibition for C[C@H]1CN([C@@H](C)CO)S(=O)(=O)c2ccc(C#Cc3cccc(F)c3)cc2O[C@@H]1CN(C)S(=O)(=O)c1cn(C)cn1 is 102% (active)

The recorded inhibition for COc1ccc(S(=O)(=O)Nc2ccc3c(c2)C(=O)N([C@@H](C)CO)C[C@H](C)[C@@H](CN(C)Cc2ccc(C(F)(F)F)cc2)O3)cc1 is 88.7% (inactive)

New cases:
The recorded inhibition for C[C@H]1CCCCO[C@@H](CN(C)C(=O)NC2CCCCC2)[C@@H](C)CN([C@@H](C)CO)C(=O)c2cc(NS(=O)(=O)c3ccc(Cl)cc3)ccc2O1 is 103% (active)

The recorded inhibition for O=C(C1CC1)N1CCCCN2[C@H](CO)[C@H](c3ccc(-c4cccc(F)c4)cc3)[C@H]2C1 is 99.1% (active)

The recorded inhibition for O=C(c1cccc(F)c1)N1CC[C@@H]2[C@@H](CO)Nc3ccc(C#Cc4cccc(F)c4)cc3[C@@H]21 is 106% (active)

The recorded inhibition for O=S(=O)(c1ccccc1)N1CC[C@@H]2[C@H]1c1cc(C#Cc3cccc(F)c3)ccc1N[C@@H]2CO is 97.6% (active)

The recorded inhibition for C[C@@H]1CN([C@H](C)CO)C(=O)c2cc(NS(=O)(=O)c3ccc(Cl)cc3)ccc2O[C@@H](C)CCCCO[C@H]1CN(C)Cc1ccccc1 is 97.6% (active)

The recorded inhibition for COc1ccc(S(=O)(=O)N(C)C[C@H]2Oc3c(NC(=O)Nc4cccc5ccccc45)cccc3C(=O)N([C@@H](C)CO)C[C@H]2C)cc1 is 98.8% (active)

* * *

Consider the following molecules and their measured inhibition readings.
Assay: blockers of Trypanosoma cruzi growth in host cells – cell-based, NIH3T3 host, beta-gal parasite, luminescence, cherry-pick, confirmation (AID 651739)
Details: T. cruzi beta-gal in NIH3T3, GalScreen luminescence, 90 h; at 8.35 µM; hits give high values
Hit rate of the full screen: of about 5,600 compounds, about 4,100 (73%) were called active. Not shown: some 4% with an inconclusive outcome. The set was probably picked from earlier hits. Only a sample is shown.
Give a bare numeral; the unit % is implied.

The recorded inhibition for C[C@@H]1CN([C@@H](C)CO)S(=O)(=O)c2ccc(C#Cc3ccccc3)cc2O[C@@H]1CN(C)C(=O)Nc1ccccc1 is 103

New cases:
The recorded inhibition for C[C@H](CO)N1C[C@H](C)[C@H](CN(C)Cc2cccnc2)Oc2cc(C#CC3CCCC3)ccc2S1(=O)=O is 108

The recorded inhibition for C[C@H]1CCCCO[C@H](CN(C)Cc2ccccc2)[C@@H](C)CN([C@@H](C)CO)C(=O)c2cc(NC(=O)c3ccccc3)ccc2O1 is 113

The recorded inhibition for C[C@@H]1CCCCO[C@@H](CN(C)C(=O)Nc2ccc(F)cc2)[C@H](C)CN([C@H](C)CO)C(=O)c2cc(NC(=O)Nc3cccc4ccccc34)ccc2O1 is 114

* * *

Consider the following compounds and their measured inhibition readings.
Experiment: blockers of Trypanosoma cruzi growth in host cells – cell-based, NIH3T3 host, beta-gal parasite, luminescence, cherry-pick, confirmation (AID 651739)
Conditions: T. cruzi beta-gal in NIH3T3, GalScreen luminescence, 90 h; at 8.35 µM; hits give high values
Screen size: about 5,600 compounds; about 4,100 (73%) were called active. About 4% were inconclusive and are not listed. The set was probably picked from earlier hits. The list is a sample of the results.

// worked examples, inhibition included
The recorded inhibition for C[C@@H]1CCCCO[C@H](CN(C)Cc2ccc(C(F)(F)F)cc2)[C@H](C)CN([C@H](C)CO)C(=O)c2cc(NC(=O)Nc3ccc(F)cc3)ccc2O1 is 96.3% (active)

The recorded inhibition for C[C@@H]1CCCCO[C@@H](CN(C)Cc2ccc(C(F)(F)F)cc2)[C@@H](C)CN([C@H](C)CO)C(=O)c2cc(NC(=O)Nc3ccccc3)ccc2O1 is 105% (active)

New cases:
The recorded inhibition for C[C@@H]1CCCCO[C@H](CN(C)Cc2ccccc2)[C@@H](C)CN([C@@H](C)CO)C(=O)c2cc(NC(=O)Nc3ccc(F)cc3)ccc2O1 is 101% (active)

* * *

Test: blockers of Trypanosoma cruzi growth in host cells – cell-based, NIH3T3 host, beta-gal parasite, luminescence, cherry-pick, confirmation (AID 651739)
Details: T. cruzi beta-gal in NIH3T3, GalScreen luminescence, 90 h; at 8.35 µM
The whole screen tested about 5,600 compounds, of which about 4,100 (73%) were called active. About 4% were inconclusive and are not listed.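 The calls were made as follows: active = mean replicate inhibition above about 95% and at least 55% of replicates individually reaching it (limit read from the data); inconclusive = only one of the two criteria is met; inactive = neither criterion is met.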 So high a share suggests a set chosen from earlier hits. The list is a sample of the results.
# output must be one of t = active, f = inactive

**Q:** What is the recorded call for this molecule in the test? O=C(Nc1cc(F)ccc1F)N1CCCCN2[C@H](CO)[C@@H](c3ccc(-c4cncnc4)cc3)[C@H]2C1
**A:** f

**Q:** What is the recorded call for this molecule in the test? C[C@@H]1CN([C@H](C)CO)C(=O)Cc2cc(NC(=O)c3ccncc3)ccc2O[C@H]1CN(C)Cc1ccc(-c2ccccc2)cc1
**A:** t

**Q:** What is the recorded call for this molecule in the test? C[C@H](CO)N1C[C@H](C)[C@@H](CN(C)Cc2ccc(C(F)(F)F)cc2)OCCCC[C@H](C)Oc2ccc(NC(=O)C3CCCCC3)cc2C1=O
**A:** t

**Q:** What is the recorded call for this molecule in the test? C[C@H]1CN([C@@H](C)CO)C(=O)c2cccc(NS(=O)(=O)c3cn(C)cn3)c2O[C@@H]1CN(C)CC1CCCCC1
**A:** f

**Q:** What is the recorded call for this molecule in the test? O=S(=O)(Cc1ccccc1)N1CCCCN2[C@@H](CO)[C@@H](c3ccc(-c4ccc(F)cc4)cc3)[C@@H]2C1
**A:** t

**Q:** What is the recorded call for this molecule in the test? C[C@@H]1CN([C@@H](C)CO)C(=O)c2cc(NC(=O)C3CCCCC3)ccc2O[C@@H](C)CCCCO[C@H]1CN(C)Cc1ccncc1
**A:** t

**Q:** What is the recorded call for this molecule in the test? O=C(c1cccc(F)c1)N1CCCCN2[C@H](CO)[C@H](c3ccc(-c4ccncc4)cc3)[C@H]2C1
**A:** t

**Q:** What is the recorded call for this molecule in the test? C[C@H](CO)N1C[C@H](C)[C@@H](CN(C)Cc2ccc(C(=O)Nc3ccccc3N)cc2)Oc2c(NC(=O)c3ccc(-c4nccs4)cc3)cccc2C1=O
**A:** t

**Q:** What is the recorded call for this molecule in the test? C/C=C/c1ccc([C@H]2[C@H]3CN(S(=O)(=O)c4ccccc4)CCCCN3[C@H]2CO)cc1
**A:** t

**Q:** What is the recorded call for this molecule in the test? O=C(c1ccncc1)N1CCCCN2[C@H](CO)[C@H](c3ccc(-c4ccccc4)cc3)[C@H]2C1
**A:** t

**Q:** What is the recorded call for this molecule in the test? Cc1cccc(-c2ccc([C@@H]3[C@@H](CO)N4CCCCN(S(=O)(=O)c5cccs5)C[C@H]34)cc2)c1
**A:** t

**Q:** What is the recorded call for this molecule in the test? C[C@@H]1CN([C@H](C)CO)C(=O)c2cccc(NC(=O)NC3CCCCC3)c2O[C@H]1CN(C)Cc1ccc(C(F)(F)F)cc1
**A:** f

**Q:** What is the recorded call for this molecule in the test? CC(C)(O)C#Cc1ccc([C@@H]2[C@H](CO)N3CCCCN(C(=O)c4cccc(F)c4)C[C@@H]23)cc1
**A:** f

**Q:** What is the recorded call for this molecule in the test? CNC[C@@H]1Oc2cc(C#CCC3CCCC3)ccc2S(=O)(=O)N([C@H](C)CO)C[C@H]1C
**A:** t

**Q:** What is the recorded call for this molecule in the test? Cc1ccc(S(=O)(=O)N(C)C[C@H]2OCCCC[C@H](C)Oc3ccc(NC(=O)Cc4ccccc4)cc3C(=O)N([C@@H](C)CO)C[C@@H]2C)cc1
**A:** t

**Q:** What is the recorded call for this molecule in the test? Cc1ccc(S(=O)(=O)N(C)C[C@@H]2Oc3c(NC(=O)c4nc5ccccc5s4)cccc3C(=O)N([C@H](C)CO)C[C@@H]2C)cc1
**A:** t

**Q:** What is the recorded call for this molecule in the test? CCC(=O)N1CC[C@@H]2[C@@H](CO)N(C)c3ccc(-c4cccc(OC)c4)cc3[C@@H]21
**A:** t

**Q:** What is the recorded call for this molecule in the test? C[C@@H]1CN([C@H](C)CO)S(=O)(=O)c2ccc(C#CCC3CCCC3)cc2O[C@H]1CN(C)C(=O)CC1CC1
**A:** t

**Q:** What is the recorded call for this molecule in the test? C[C@@H]1CCCCO[C@@H](CN(C)CC2CC2)[C@H](C)CN([C@H](C)CO)C(=O)c2cc(NC(=O)C3CCCCC3)ccc2O1
**A:** t

**Q:** What is the recorded call for this molecule in the test? COc1ccc(-c2ccc3c(c2)[C@@H]2[C@@H](CCN2C(=O)Cc2ccccn2)[C@H](CO)N3C)cc1
**A:** t
